# assayed_system: Solute carrier family 12 member 5 (Homo sapiens, UniProt Q9H2X9)
# experiment_description: concentration-response of KCC2 transport modulators – cell-based, HEK293 KCC2, FluoZin-2 fluorescence, dose response (AID 1736)
pEC50: −log10 of the molar value.
attribute_measured: pEC50

- chemical_string: "Cc1[nH]c2ccccc2c1Cc1n[nH]c(=S)n1C"
  reported_value: 4.60
- chemical_string: "O=C(CSc1nccc(=O)[nH]1)N1CCc2ccccc2C1"
  reported_value: 5.04
- chemical_string: "CC(C)CCNC(=O)COC(=O)/C=C/c1ccc2ccccc2n1"
  reported_value: 5.56
- chemical_string: "O=C(C[n+]1ccccc1)c1ccc(-c2ccccc2)cc1"
  reported_value: 4.36
- chemical_string: "NC(=S)NN=C1C(=O)N(Cc2ccccc2)c2ccccc21"
  reported_value: 6.21
- chemical_string: "O=C(CSc1ccc(-c2cccs2)nn1)Nc1ccccc1F"
  reported_value: 5.66
- chemical_string: "O=C(NCCc1c[nH]c2ccccc12)c1cc(S(=O)(=O)N2CCCCC2)ccc1N1CCOCC1"
  reported_value: 4.70
- chemical_string: "O=C(CSc1nnnn1-c1ccc(Cl)cc1)N1CCc2ccccc2C1"
  reported_value: 5.49
- chemical_string: "c1ccc(-n2cnc3cc(NCc4ccncc4)ccc32)cc1"
  reported_value: 5.26
- chemical_string: "COc1ccc(-c2nnc(S/C(=C/c3ccc(Cl)cc3)C(=O)O)o2)cc1"
  reported_value: 6.31
- chemical_string: "N#Cc1ccccc1NC(=O)CSc1nccn1CCc1ccccc1"
  reported_value: 4.90
- chemical_string: "O=C(CSc1nnc(-c2ccc(O)cc2)n1Cc1ccco1)N1CCc2ccccc2C1"
  reported_value: 4.82

* * *

# assayed_system: Solute carrier family 12 member 5 (Homo sapiens)
# Sequence (Q9H2X9 whole entry): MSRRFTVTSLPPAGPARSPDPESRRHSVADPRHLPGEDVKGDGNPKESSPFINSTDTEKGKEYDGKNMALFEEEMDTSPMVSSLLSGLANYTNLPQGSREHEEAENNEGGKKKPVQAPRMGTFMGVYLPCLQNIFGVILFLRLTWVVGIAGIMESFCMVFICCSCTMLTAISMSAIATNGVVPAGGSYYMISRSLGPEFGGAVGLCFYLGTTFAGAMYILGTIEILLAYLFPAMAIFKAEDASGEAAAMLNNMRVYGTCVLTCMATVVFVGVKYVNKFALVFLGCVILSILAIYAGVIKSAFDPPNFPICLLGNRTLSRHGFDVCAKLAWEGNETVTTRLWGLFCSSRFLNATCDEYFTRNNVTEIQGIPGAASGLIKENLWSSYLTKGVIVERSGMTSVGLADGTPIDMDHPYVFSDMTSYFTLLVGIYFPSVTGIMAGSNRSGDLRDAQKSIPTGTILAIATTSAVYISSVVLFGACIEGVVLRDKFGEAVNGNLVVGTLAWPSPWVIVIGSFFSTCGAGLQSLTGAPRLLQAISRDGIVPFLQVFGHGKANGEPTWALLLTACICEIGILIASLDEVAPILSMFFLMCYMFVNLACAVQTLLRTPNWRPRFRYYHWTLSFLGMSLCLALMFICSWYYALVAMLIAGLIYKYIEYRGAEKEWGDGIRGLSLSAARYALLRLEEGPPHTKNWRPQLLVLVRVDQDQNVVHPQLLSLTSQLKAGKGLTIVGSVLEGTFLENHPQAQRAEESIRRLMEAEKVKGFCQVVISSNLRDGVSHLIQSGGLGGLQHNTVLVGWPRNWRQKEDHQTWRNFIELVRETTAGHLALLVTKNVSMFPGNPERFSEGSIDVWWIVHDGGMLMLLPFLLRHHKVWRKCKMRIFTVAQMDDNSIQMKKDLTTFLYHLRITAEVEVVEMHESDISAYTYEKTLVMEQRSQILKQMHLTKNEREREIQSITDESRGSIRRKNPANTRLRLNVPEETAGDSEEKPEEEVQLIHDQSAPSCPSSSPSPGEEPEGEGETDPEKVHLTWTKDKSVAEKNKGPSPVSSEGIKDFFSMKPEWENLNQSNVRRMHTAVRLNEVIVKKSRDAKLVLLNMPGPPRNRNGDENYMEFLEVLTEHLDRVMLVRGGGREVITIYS
# experiment_description: concentration-response of KCC2 transport modulators – cell-based, HEK293 KCC2, FluoZin-2 fluorescence, dose response (AID 1736)
attribute_measured: EC50 (µM)

- molecule: "O=C(CNC(=O)/C(=C\\c1ccc(Br)cc1)NC(=O)c1ccccc1)OCc1ccccc1"
  reported_value: 1.2
- molecule: "O=C(Cn1nc(-c2ccccc2)ccc1=O)NCc1ccc2c(c1)OCO2"
  reported_value: 1.33
- molecule: "N#Cc1nc(-c2cccs2)oc1N1CCN(Cc2ccccc2)CC1"
  reported_value: 11.7
- molecule: "O=C(NC(=S)NNC(=O)c1cnccn1)c1ccc(Cl)cc1"
  reported_value: 13
- molecule: "O=C(NN1C(=O)/C(=C/c2nc3ccccc3[nH]2)SC1=S)c1ccccc1Cl"
  reported_value: 0.153
- molecule: "CCOC(=O)c1sc(Nc2nc3c(OC)cccc3s2)nc1C [SMR000027213]"
  reported_value: 155
- molecule: "Cc1nc(SCc2ccc(F)cc2)c([N+](=O)[O-])[nH]1 [SMR000271028]"
  reported_value: 878
- molecule: "N#Cc1nc(Cc2cccc3ccccc23)oc1NCCN1CCOCC1"
  reported_value: 10.3
- molecule: "c1ccc(-c2nnc(Sc3ncnc4c3cnn4-c3ccccc3)[nH]2)cc1 [SMR000019566]"
  reported_value: 12.3
- molecule: "O=C(OCc1ccccn1)c1ccc(COc2ccccc2Cl)o1"
  reported_value: 6.49
